B1: OR4K15 (parent)
chain: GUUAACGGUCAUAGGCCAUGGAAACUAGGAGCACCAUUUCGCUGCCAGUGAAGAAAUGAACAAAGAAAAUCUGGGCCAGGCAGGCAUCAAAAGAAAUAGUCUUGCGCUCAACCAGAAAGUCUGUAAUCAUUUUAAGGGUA

Variants of: B1
Test: self-cleavage, relative activity (ratio to wild type); higher = more cleavage; in vitro, sequencing; the parent is a self-cleaving ribozyme
Output t for self-cleavage not less than 0.8; output f otherwise.

mutation-string	label
A33G A118U	f
A11U U72C	f
U12C A54U	t
G29A A56G	t
A30U U38C	t
A67G G84U	f
A129U U132C	t
A95G A118G	f
U9C U57A	t
U70C A114C	f
U9A A22G	t
A27G U49C	t
A66U A82U	f
U37G A111G	f
U9C U103A	t
U38C C40A	t
G53A A60G	t
A66G G137A	t
G14A A18U	t
A68U U70C	f
